// values below are reported EC50
- MEASUREMENT_TARGET: UniProt Q08499
- Sequence (Q08499 1-673 isoform Q08499-2): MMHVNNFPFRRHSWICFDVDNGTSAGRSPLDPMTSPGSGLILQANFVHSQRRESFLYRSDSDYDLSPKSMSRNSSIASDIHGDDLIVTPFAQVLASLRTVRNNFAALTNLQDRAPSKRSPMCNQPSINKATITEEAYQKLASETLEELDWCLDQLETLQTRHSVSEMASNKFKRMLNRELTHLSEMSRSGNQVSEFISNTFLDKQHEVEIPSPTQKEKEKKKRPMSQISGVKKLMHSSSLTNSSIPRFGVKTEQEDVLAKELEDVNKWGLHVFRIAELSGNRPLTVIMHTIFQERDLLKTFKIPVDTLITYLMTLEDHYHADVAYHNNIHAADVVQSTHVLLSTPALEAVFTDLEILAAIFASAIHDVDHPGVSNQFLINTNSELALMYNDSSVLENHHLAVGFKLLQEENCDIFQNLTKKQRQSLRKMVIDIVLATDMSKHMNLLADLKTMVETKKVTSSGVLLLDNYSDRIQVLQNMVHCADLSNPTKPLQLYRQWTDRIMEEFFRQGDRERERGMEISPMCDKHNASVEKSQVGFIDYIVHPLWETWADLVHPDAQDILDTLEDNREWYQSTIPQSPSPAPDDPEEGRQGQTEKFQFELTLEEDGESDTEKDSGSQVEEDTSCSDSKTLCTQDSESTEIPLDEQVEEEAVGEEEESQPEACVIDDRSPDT

SMILES_NOTATION	EC50
NC(=O)c1ccc(Cc2cnc(OC(F)F)c(-c3cccc(Cl)c3)c2)cn1	100 to 1000 nM
COc1ncc(Cn2ccnn2)cc1-c1cccc(Cl)c1	< 100 nM
COc1ncc(Cc2ccc(=O)n(C)c2)cc1-c1cccc(Cl)c1	1000 to 10000 nM
CCOc1ncc(Cn2cc(Cl)c(N)n2)cc1-c1cccc(Cl)c1	100 to 1000 nM
NC(=O)c1cn(Cc2cnc(OC(F)F)c(-c3cccc(Cl)c3)c2)cn1	1000 to 10000 nM
CCOc1ncc(Cc2cnc(N)nc2)nc1-c1cccc(OC(F)F)c1	< 100 nM
COc1ncc(Cn2ccccc2=O)cc1-c1cccc(Cl)c1	1000 to 10000 nM
COc1ncc(Cc2ccc(C(N)=O)cc2)cc1-c1cccc(Cl)c1	< 100 nM
COc1cccc(-c2cc(Cc3cnc(C(N)=O)nc3)cnc2OC(F)F)c1	100 to 1000 nM
